# Test system: Pichia kudriavzevii
# assay_procedure: Antifungal activity against Candida krusei ATCC 14243 assessed as growth inhibition zone at 50 ug after 24hrs by Kirby-Bauer agar diffusion assay
# Format: functional
# conditions_used: ATCC 14243, 24 h, read-out: IZ
measured_property: zone of inhibition at 50 µg/disc (mm)
The reply should be a number in mm, with the unit left off.

Worked examples, 3 molecules total:
smiles_representation	zone of inhibition at 50 µg/disc [mm]
CO[C@H]1C(=O)N(SC)[C@H]1c1ccc(Cl)cc1Cl	0
CO[C@H]1C(=O)N(SC)[C@H]1c1cc(F)c(F)c(F)c1	0
CO[C@H]1C(=O)N(SC)[C@H]1c1ccc(Br)cc1	0

QUERY: Give zone of inhibition at 50 µg/disc for "CO[C@H]1C(=O)N(SC)[C@H]1/C=C/c1ccccc1"
RESULT: 0

QUERY: Give zone of inhibition at 50 µg/disc for "CSN1C(=O)[C@@H](OC(C)=O)[C@H]1c1ccccc1"
RESULT: 0

QUERY: Give zone of inhibition at 50 µg/disc for "CSN1C(=O)[C@H](OC(C)=O)[C@@H]1c1ccccc1"
RESULT: 0

---

Measured zone of inhibition at 50 µg/disc, listed per entry.
# System: Cyberlindnera jadinii
# assay_procedure: Antifungal activity against Candida utilis ATCC 29950 assessed as growth inhibition zone at 50 ug after 24 by Kirby-Bauer agar diffusion assay
# Type: functional
# conditions_used: Williopsis jadinii, read-out: IZ
Kindly format the answer as number then unit.

compound	zone of inhibition at 50 µg/disc
CO[C@H]1C(=O)N(SC)[C@H]1c1ccccc1F	14 mm
CO[C@H]1C(=O)N(SC)[C@H]1/C=C/c1ccccc1	19 mm

# ---- query compound ----
QUERY: Give zone of inhibition at 50 µg/disc for "CO[C@H]1C(=O)N(SC)[C@H]1c1ccc(Cl)cc1Cl"
RESULT: 21 mm

---

# Tested on: Pichia kudriavzevii
# assay_procedure: Antifungal activity against Candida krusei ATCC 14243 assessed as growth inhibition zone at 50 ug after 24hrs by Kirby-Bauer agar diffusion assay
# Type: functional
# conditions_used: ATCC 14243, 24 h, read-out: IZ
measured_property: zone of inhibition at 50 µg/disc (mm)
The reply should be a number in mm, with the unit left off.

molecule	experimental_target	measured_property	uom	endpoint_result
CSN1C(=O)[C@H](Oc2ccccc2)[C@@H]1CCc1ccccc1	Pichia kudriavzevii	zone of inhibition at 50 µg/disc	mm	0
CO[C@H]1C(=O)N(SC)[C@H]1c1ccc(Cl)cc1	Pichia kudriavzevii	zone of inhibition at 50 µg/disc	mm	0
CO[C@H]1C(=O)N(SC)[C@H]1c1ccccc1F	Pichia kudriavzevii	zone of inhibition at 50 µg/disc	mm	0
CO[C@H]1C(=O)N(SC)[C@H]1c1ccccc1I	Pichia kudriavzevii	zone of inhibition at 50 µg/disc	mm	0
CO[C@H]1C(=O)N(SC)[C@H]1c1ccc(I)cc1	Pichia kudriavzevii	zone of inhibition at 50 µg/disc	mm	0
CCC(C)SN1C(=O)[C@H](OC)[C@@H]1c1ccccc1Cl (stereo partly drawn)	Pichia kudriavzevii	zone of inhibition at 50 µg/disc	mm	0
CSN1C(=O)[C@H](OC(C)=O)[C@@H]1/C=C/c1ccccc1	Pichia kudriavzevii	zone of inhibition at 50 µg/disc	mm	0

QUERY: Give zone of inhibition at 50 µg/disc for "CSN1C(=O)[C@H](OC(C)=O)[C@@H]1CCc1ccccc1"
RESULT: 0

---

# Tested on: Cyberlindnera jadinii
# assay_procedure: Antifungal activity against Candida utilis ATCC 29950 assessed as growth inhibition zone at 50 ug after 24 by Kirby-Bauer agar diffusion assay
# Format: functional
# conditions_used: Williopsis jadinii, read-out: IZ
measured_property: zone of inhibition at 50 µg/disc (mm)
The reply should be a number in mm, with the unit left off.

QUERY: Give zone of inhibition at 50 µg/disc for "CO[C@H]1C(=O)N(SC)[C@H]1c1cccc(Cl)c1"
RESULT: 19

QUERY: Give zone of inhibition at 50 µg/disc for "CSN1C(=O)[C@H](Oc2ccccc2)[C@@H]1/C=C/c1ccccc1"
RESULT: 0

QUERY: Give zone of inhibition at 50 µg/disc for "CO[C@H]1C(=O)N(SC)[C@H]1c1cccc(F)c1"
RESULT: 16

QUERY: Give zone of inhibition at 50 µg/disc for CCC(C)SN1C(=O)[C@H](OC)[C@@H]1c1ccccc1Cl (some centres not stated)
RESULT: 0

QUERY: Give zone of inhibition at 50 µg/disc for "CSN1C(=O)[C@H](Oc2ccccc2)[C@@H]1CCc1ccccc1"
RESULT: 21

QUERY: Give zone of inhibition at 50 µg/disc for "CSN1C(=O)[C@H](OC(C)=O)[C@@H]1/C=C/c1ccccc1"
RESULT: 13

---

# Tested on: Cyberlindnera jadinii
# assay_procedure: Antifungal activity against Candida utilis ATCC 29950 assessed as growth inhibition zone at 50 ug after 24 by Kirby-Bauer agar diffusion assay
# Assay type: functional
# conditions_used: Williopsis jadinii, read-out: IZ
Everything with zone of inhibition at 50 µg/disc lower than 20 mm is label 0; everything else, including exactly 20 mm, is label 1.

smiles_representation	answer_label
CO[C@H]1C(=O)N(SC)[C@H]1c1ccccc1I	label 0
CO[C@H]1C(=O)N(SC)[C@H]1c1ccc(Br)cc1	label 0
CO[C@H]1C(=O)N(SC)[C@H]1c1ccc(Cl)cc1	label 0
CO[C@H]1C(=O)N(SC)[C@H]1c1ccccc1Br	label 1
CO[C@H]1C(=O)N(SC)[C@H]1c1cc(F)cc(F)c1F	label 0
CSN1C(=O)[C@H](OC(C)=O)[C@@H]1c1ccccc1	label 0

QUERY: API: above_or_equal(metric=zone of inhibition at 50 µg/disc, cutoff=20 mm) for item "CO[C@H]1C(=O)N(SC)[C@H]1c1cccc(Br)c1"
RESULT: label 0

---

# Test system: Cyberlindnera jadinii
# assay_procedure: Antifungal activity against Candida utilis ATCC 29950 assessed as growth inhibition zone at 50 ug after 24 by Kirby-Bauer agar diffusion assay
# Format: functional
# conditions_used: Williopsis jadinii, read-out: IZ
measured_property: zone of inhibition at 50 µg/disc

Worked examples, 3 compounds total:
smiles_representation	zone of inhibition at 50 µg/disc
CO[C@H]1C(=O)N(SC)[C@H]1CCc1ccccc1	28 mm
CO[C@H]1C(=O)N(SC)[C@H]1c1ccc(I)cc1	20 mm
CO[C@H]1C(=O)N(SC)[C@H]1c1cc(F)c(F)cc1F	14 mm

QUERY: Give zone of inhibition at 50 µg/disc for "CSN1C(=O)[C@H](OC(C)=O)[C@@H]1CCc1ccccc1"
RESULT: 0 mm

QUERY: Give zone of inhibition at 50 µg/disc for "CO[C@H]1C(=O)N(SC)[C@H]1c1cc(Cl)cc(Cl)c1Cl"
RESULT: 19 mm

QUERY: Give zone of inhibition at 50 µg/disc for "CSN1C(=O)[C@@H](OC(C)=O)[C@H]1c1ccccc1"
RESULT: 16 mm

QUERY: Give zone of inhibition at 50 µg/disc for "CO[C@H]1C(=O)N(SC)[C@H]1c1cccc(I)c1"
RESULT: 15 mm

QUERY: Give zone of inhibition at 50 µg/disc for "CO[C@H]1C(=O)N(SC)[C@H]1c1ccccc1Cl"
RESULT: 22 mm

QUERY: Give zone of inhibition at 50 µg/disc for "CO[C@H]1C(=O)N(SC)[C@H]1c1cc(F)c(F)c(F)c1"
RESULT: 29 mm

Values compiled from ChEMBL document CHEMBL1156595.
